Numbers sourced from ChEMBL document CHEMBL1139902.

experimental-protocol: Cmax in Wistar rat at 10 mg/kg. po
Type: ADME, organism-based
Design: dose 10 mg/kg, route oral
measurement-context: in vivo
Measured Cmax by item
quantity: Cmax (nM)

1. O=C(N[C@H](CNc1ccc(OC(F)(F)F)cc1)c1ccccc1)[C@@H](CC(=O)N1CCOCC1)CC1CCCCC1 :: 815
2. CC(C)[C@@H](CNc1ccc(OC(F)(F)F)cc1)NC(=O)[C@@H](CC(=O)N1CCOCC1)c1ccccc1 :: 647
3. CC(C)[C@@H](CNc1ccc(OC(F)(F)F)cc1)NC(=O)[C@@H](CC(=O)N1CCOCC1)c1ccc(C(F)(F)F)cc1 :: 946
4. O=C(NCCN1CCc2cc(F)ccc21)[C@H](CC1CCCCC1)NC(=O)N1CCOCC1 :: 140

====

target-of-assay: UniProtKB P07711
Sequence (P07711 whole entry): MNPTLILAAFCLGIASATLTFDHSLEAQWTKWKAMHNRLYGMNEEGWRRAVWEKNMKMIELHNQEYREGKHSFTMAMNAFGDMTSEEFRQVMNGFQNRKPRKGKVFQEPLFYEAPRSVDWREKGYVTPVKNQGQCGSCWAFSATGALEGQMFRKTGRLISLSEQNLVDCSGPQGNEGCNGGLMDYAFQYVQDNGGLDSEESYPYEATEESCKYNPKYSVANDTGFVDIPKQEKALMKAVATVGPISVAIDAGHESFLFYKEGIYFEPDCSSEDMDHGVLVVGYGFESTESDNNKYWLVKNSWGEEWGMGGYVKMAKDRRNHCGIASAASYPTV
quantity: Ki (nM)

1. CCC[C@@H](CNc1ccc(OC(F)(F)F)cc1)NC(=O)[C@@H](CC(=O)N1CCOCC1)CC1CCCC1 :: 2680
2. CCC[C@@H](CNc1ccc(OC(F)(F)F)cc1)NC(=O)[C@@H](CC(=O)N1CCOCC1)CC1CCCCC1 :: 285
3. CC[C@@H](CNc1ccc(OC(F)(F)F)cc1)NC(=O)[C@H](CCc1ccccc1)CC(=O)N1CCOCC1 :: 588
4. O=C(N[C@@H](CCc1ccccc1)CNc1ccc(OC(F)(F)F)cc1)[C@H](CCC1CCCC1)CC(=O)N1CCOCC1 :: 2310

====

experimental-protocol: Tmax in Wistar rat at 10 mg/kg. po
Format: ADME, organism-based
Design: dose 10 mg/kg, route oral
measurement-context: in vivo
quantity: Tmax (h)

1. CC(C)[C@@H](CNc1ccc(OC(F)(F)F)cc1)NC(=O)[C@@H](CC(=O)N1CCOCC1)CC1CCCCC1 :: 1.7
2. CC(C)[C@@H](CNc1ccc(OC(F)(F)F)cc1)NC(=O)[C@@H](CC(=O)N1CCOCC1)c1ccccc1 :: 0.7
3. O=C(NCCN1CCc2cc(F)ccc21)[C@H](CC1CCCCC1)NC(=O)N1CCOCC1 :: 0.33
4. O=C(N[C@H](CNc1ccc(OC(F)(F)F)cc1)c1ccccc1)[C@@H](CC(=O)N1CCOCC1)CC1CCCCC1 :: 2
5. CC(C)[C@@H](CNc1ccc(OC(F)(F)F)cc1)NC(=O)[C@@H](CC(=O)N1CCOCC1)c1ccc(C(F)(F)F)cc1 :: 2
6. CC(C)[C@@H](CNc1ccc(OC(F)(F)F)cc1)NC(=O)[C@@H](CC(=O)N1CCOCC1)c1ccc(F)cc1 :: 1.67
7. CCC[C@@H](CNc1ccc(OC(F)(F)F)cc1)NC(=O)[C@@H](CC(=O)N1CCOCC1)CC1CCCCC1 :: 1.83
8. C[C@@H](CNc1ccc(OC(F)(F)F)cc1)NC(=O)[C@@H](CC(=O)N1CCOCC1)CC1CCCCC1 :: 1.5

====

Sequence of the target: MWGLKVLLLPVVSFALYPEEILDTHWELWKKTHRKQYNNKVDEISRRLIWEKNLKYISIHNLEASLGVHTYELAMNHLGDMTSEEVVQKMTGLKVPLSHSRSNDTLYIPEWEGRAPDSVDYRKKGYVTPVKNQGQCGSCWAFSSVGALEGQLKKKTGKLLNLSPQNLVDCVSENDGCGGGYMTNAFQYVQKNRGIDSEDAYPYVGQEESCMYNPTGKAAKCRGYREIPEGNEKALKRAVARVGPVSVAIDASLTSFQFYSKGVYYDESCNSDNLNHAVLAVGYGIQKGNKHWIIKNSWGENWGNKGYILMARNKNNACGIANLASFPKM
# key: entry, value: Ki
quantity: Ki

1. CC(C)[C@@H](CNc1ccc(OC(F)(F)F)cc1)NC(=O)[C@@H](CC(=O)N1CCOCC1)c1ccc(C(F)(F)F)cc1 :: > 100000 nM
2. CC(C)[C@@H](CNc1ccc(OC(F)(F)F)cc1)NC(=O)[C@@H](CC(=O)N1CCOCC1)c1ccc(Cl)cc1 :: > 100000 nM
3. O=C(N[C@H](CNc1ccc(OC(F)(F)F)cc1)C1CC1)[C@@H](CC(=O)N1CCOCC1)c1ccc(C(F)(F)F)cc1 :: > 100000 nM
4. C[C@@H](CNc1ccc(OC(F)(F)F)cc1)NC(=O)[C@@H](CC(=O)N1CCOCC1)CC(C)(C)C :: 2330 nM
5. CC(C)[C@@H](CNc1ccc(OC(F)(F)F)cc1)NC(=O)[C@@H](CC(=O)N1CCOCC1)c1ccccc1C(F)(F)F :: > 100000 nM
6. O=C(N[C@@H](CCc1ccccc1)CNc1ccc(OC(F)(F)F)cc1)[C@@H](CC(=O)N1CCOCC1)CC1CCCCC1 :: 1480 nM
7. C[C@@H](CNc1ccc(OC(F)(F)F)cc1)NC(=O)[C@@H](CC(=O)N1CCOCC1)CC1CCCC1 :: 3710 nM
8. CC(C)[C@@H](CNc1ccc(OC(F)(F)F)cc1)NC(=O)[C@H](CCCc1ccccc1)CC(=O)N1CCOCC1 :: 2120 nM
9. CC(C)[C@@H](CNc1ccc(OC(F)(F)F)cc1)NC(=O)[C@H](CCc1ccccc1)CC(=O)N1CCOCC1 :: 184 nM
